targetDesc: EGFR(Dell9_T790M_C797S) (aa 669-1210, in house) (Homo sapiens, UniProt P00533, T790M/C797S, form not given)
Sequence (P00533 with tags, fused parts or gaps DEL746-750/T790M/C797S, form open): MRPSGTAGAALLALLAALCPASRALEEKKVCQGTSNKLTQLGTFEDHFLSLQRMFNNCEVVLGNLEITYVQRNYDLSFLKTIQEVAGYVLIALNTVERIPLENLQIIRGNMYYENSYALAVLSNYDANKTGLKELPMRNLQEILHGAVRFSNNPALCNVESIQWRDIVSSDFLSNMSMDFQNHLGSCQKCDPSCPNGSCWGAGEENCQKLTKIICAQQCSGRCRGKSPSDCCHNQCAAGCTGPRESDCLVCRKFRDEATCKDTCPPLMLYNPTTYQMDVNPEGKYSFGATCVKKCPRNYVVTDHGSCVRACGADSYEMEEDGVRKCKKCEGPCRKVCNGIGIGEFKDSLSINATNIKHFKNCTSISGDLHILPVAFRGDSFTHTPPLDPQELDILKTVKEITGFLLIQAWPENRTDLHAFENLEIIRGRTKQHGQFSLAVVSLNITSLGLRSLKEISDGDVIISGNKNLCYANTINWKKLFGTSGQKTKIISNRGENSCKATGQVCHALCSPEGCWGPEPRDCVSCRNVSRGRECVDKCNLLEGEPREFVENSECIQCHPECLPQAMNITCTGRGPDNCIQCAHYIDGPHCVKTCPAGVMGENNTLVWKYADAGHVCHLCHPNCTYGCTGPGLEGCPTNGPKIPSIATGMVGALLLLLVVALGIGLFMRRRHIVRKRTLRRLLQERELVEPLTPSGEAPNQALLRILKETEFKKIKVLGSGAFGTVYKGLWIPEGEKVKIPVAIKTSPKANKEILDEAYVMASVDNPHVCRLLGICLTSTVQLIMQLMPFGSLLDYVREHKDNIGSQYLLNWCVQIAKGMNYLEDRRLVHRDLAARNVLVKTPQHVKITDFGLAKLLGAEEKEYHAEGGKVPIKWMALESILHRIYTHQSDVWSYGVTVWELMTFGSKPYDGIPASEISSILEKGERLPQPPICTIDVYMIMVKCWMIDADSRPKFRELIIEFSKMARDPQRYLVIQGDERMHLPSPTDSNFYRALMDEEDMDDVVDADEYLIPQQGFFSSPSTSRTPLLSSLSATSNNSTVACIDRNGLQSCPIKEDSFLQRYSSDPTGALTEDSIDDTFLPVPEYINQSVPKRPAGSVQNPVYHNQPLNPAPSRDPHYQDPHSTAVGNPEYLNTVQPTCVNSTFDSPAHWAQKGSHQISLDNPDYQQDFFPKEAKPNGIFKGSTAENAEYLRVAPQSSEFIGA
assayProcedure: Biochemical EGFR inhibition assay (TR-FRET), Del19/T790M/C797S mutant
experimentalParameters: ATP at Km, 15 min pre-incubation, 60 min reaction; read-out: Del_TM_CS (Km ATP) IC50
pIC50: −log10 of the molar value.
endpointName: pIC50

Illustrative cases are given below, each with its answer.
compound="CN1CCN(C2CCN(c3ccc(Nc4ncc(Cl)c(Nc5cccc6c5N(S(C)(=O)=O)CC6)n4)c4c3CCO4)CC2)CC1 [Example 49]" numericvalue=9.35
compound="COc1cc(C2CCC(N(C)C)CC2)c(C)cc1Nc1nc(Nc2cccc3c2N(S(C)(=O)=O)CC3)c2cc[nH]c2n1 (centres unmarked) [Example 104]" numericvalue=8.28
compound="COc1cc(N2CCC(N3CCN(C)CC3)CC2)ccc1Nc1ncc(Br)c(Nc2cccc3c2N(S(C)(=O)=O)CC32CC2)n1 [Example 28]" numericvalue=9.41
compound="CCN1CCN(C2CCN(c3cc(F)c(Nc4ncc(Br)c(Nc5cccc6c5N(S(C)(=O)=O)CC6)n4)cc3F)CC2)CC1 [Example 185]" numericvalue=9.52
compound="CN(C)C1CCN(c2ccc(Nc3ncc(Cl)c(Nc4cccc5c4N(S(C)(=O)=O)CC5)n3)c3c2CCO3)CC1 [Example 47]" numericvalue=9.52

[1] CCc1cc(Nc2nc(Nc3cccc4c3N(S(C)(=O)=O)CC4)c3cc[nH]c3n2)c(OC)cc1N1CCC(N2CCN(C)CC2)CC1 [Example 94]
[2] CN(C)C1CCN(c2ccc(Nc3ncc(Br)c(Nc4cccc5c4N(S(C)(=O)=O)CC5)n3)c3c2CCC3)CC1 [Example 53]
[3] CN1CCN(c2ccc(Nc3ncc(Br)c(Nc4cccc5c4N(S(C)(=O)=O)CC5)n3)c3c2CC(C)(C)O3)CC1 [Example 56]
[4] CN(C)C1CCN(c2ccc(Nc3ncc(Br)c(Nc4cccc5c4N(S(C)(=O)=O)CC5)n3)c3c2OCO3)CC1 [Example 52]
List items by pIC50 in falling order. Give the labels in the order requested.
4, 2, 1, 3

[P] COc1cc(N2CCC(N(C)C)CC2)ccc1Nc1ncc(Cl)c(Nc2cccc3c2N(S(C)(=O)=O)CC3)n1 [Example 36]
[Q] COc1cc(N2CCC(N3CCN(C)CC3)CC2)ccc1Nc1ncc(Cl)c(Nc2ccc(F)c3c2N(S(C)(=O)=O)CC3)n1 [Example 1]
[R] COc1cc(N2CCC(N(C)C)CC2)c(C)cc1Nc1nc(Nc2cccc3c2N(S(C)(=O)=O)CC3)c2cc[nH]c2n1 [Example 103]
[S] COc1cc(N2CCC(N3CCN(C)CC3)CC2)c(Cl)cc1Nc1nc(Nc2cccc3c2N(S(C)(=O)=O)CC3)c2cc[nH]c2n1 [Example 95]
[T] COc1cc(N2CCC(N3CCN(C)CC3)CC2)ccc1Nc1ncc(Cl)c(Nc2cccc3c2N(C(C)=O)CC3)n1 [Example 17]
Give the ascending ranking of the items by reported pIC50. Answer format: the labels, in the requested order.
T, S, R, P, Q
(T: 7.82, S: 8.85, R: 9.11, P: 9.66, Q: 9.89)

[a] COc1cc(N2CCC(N3CCN(C)CC3)CC2)ccc1Nc1ncc(Cl)c(Nc2cccc3c2N(S(=O)(=O)C2CC2)CC3)n1 [Example 7]
[b] COc1cc(N2CCC(N3CCN(C)CC3)CC2)c(F)cc1Nc1nc(Nc2cccc3c2N(S(C)(=O)=O)CC3)c2cc[nH]c2n1 [Example 98]
Of a and b , which carries the smaller reported pIC50 figure? Label of pick, please.
b

[I] COc1cc(N2CCC(N3CCN(C)CC3)CC2)ccc1Nc1nc(Nc2cccc3c2N(S(C)(=O)=O)CC3)c2cc[nH]c2n1 [Example 90]
[II] CC1Cc2c(N3CCC(N(C)C)CC3)ccc(Nc3ncc(Br)c(Nc4cccc5c4N(S(C)(=O)=O)CC5)n3)c2O1 (centres unmarked) [Example 65]
[III] CCCS(=O)(=O)N1CCc2cccc(Nc3nc(Nc4ccc(N5CCC(N6CCN(C)CC6)CC5)cc4OC)ncc3Cl)c21 [Example 6]
Arrange the 3 compounds by rising pIC50, starting with the smallest. Would you mind listing the labels in the order asked for?
III, I, II
(III: 8.29, I: 8.82, II: 9.20)
